ASSAY TARGET: T1, ActRIIB-Fc homodimer (UniProt Q13705 19-137)
T1 construct: extracellular domain; also called ActRIIB homodimer
T1 sequence (looked up): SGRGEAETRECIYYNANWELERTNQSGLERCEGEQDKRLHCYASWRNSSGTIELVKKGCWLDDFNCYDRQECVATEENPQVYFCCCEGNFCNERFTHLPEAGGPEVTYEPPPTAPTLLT
PROTOCOL SUMMARY: Biacore SPR
Description: Ligands were injected and allowed to flow over the captured receptor protein.
ASSAY READOUT: pKd
Please treat pKd as minus the base-10 logarithm of the molar concentration.

Field: example entries. Status: answers known.
BMP10 (ligand, UniProt O95393 317-424, looked up) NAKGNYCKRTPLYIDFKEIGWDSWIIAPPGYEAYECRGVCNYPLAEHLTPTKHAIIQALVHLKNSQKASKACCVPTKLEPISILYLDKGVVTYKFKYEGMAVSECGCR = 10.60
BMP9 (ligand, UniProt Q9UK05 320-429, looked up, also called GDF2) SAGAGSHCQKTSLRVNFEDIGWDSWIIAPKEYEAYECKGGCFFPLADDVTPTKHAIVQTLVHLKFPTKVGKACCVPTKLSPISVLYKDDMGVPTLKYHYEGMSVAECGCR = 11.00
GDF3 (ligand, UniProt Q9NR23 251-364, looked up) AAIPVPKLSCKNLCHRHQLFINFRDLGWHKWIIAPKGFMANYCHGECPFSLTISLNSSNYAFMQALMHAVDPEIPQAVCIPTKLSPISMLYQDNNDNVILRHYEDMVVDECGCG = 8.82
activin B (ligand, UniProt P09529 293-407, looked up) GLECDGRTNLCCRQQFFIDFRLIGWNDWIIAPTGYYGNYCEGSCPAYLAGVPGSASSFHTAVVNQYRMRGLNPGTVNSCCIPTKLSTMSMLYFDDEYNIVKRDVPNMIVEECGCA = 11.10
activin A (ligand, UniProt P08476 311-426, looked up) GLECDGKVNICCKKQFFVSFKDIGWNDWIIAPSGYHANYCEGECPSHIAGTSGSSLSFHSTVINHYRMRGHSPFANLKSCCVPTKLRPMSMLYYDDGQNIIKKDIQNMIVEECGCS = 10.96

Let us move to another entry and its pKd.
Asked: Name the recorded pKd for GDF11 (ligand, UniProt O95390 299-407, looked up, also called BMP11) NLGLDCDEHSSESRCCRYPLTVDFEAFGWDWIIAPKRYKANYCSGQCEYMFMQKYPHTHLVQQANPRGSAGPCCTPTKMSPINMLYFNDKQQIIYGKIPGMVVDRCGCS .
Given back: 11.70

Where do these numbers come from? They come from patent US20190225669A1.
